Quick reference for Papp A→B at 1 h among some compounds
test.details: Apparent permeability across apical to basolateral side in dog MDCK-MDR1 cells incubated for 1 hr by high-throughput spectrometric analysis
Format: ADME, cell-based, Canis lupus familiaris

# structure.smiles.string, Papp A→B at 1 h [×10⁻⁶ cm/s]
data = [
    ("C=C(C)[C@@H]1CC[C@]2(C(=O)O)CC[C@]3(C)[C@H](CC[C@@H]4[C@@]5(C)CC=C(c6ccc(O)cc6)C(C)(C)[C@@H]5CC[C@]43C)[C@@H]12", 4.27),
    ("C=C(C)[C@@H]1CC[C@]2(C(=O)O)CC[C@]3(C)[C@H](CC[C@@H]4[C@@]5(C)CC=C(c6cccc(N)c6)C(C)(C)[C@@H]5CC[C@]43C)[C@@H]12", 1.73),
    ("C=C(C)[C@@H]1CC[C@]2(C(=O)O)CC[C@]3(C)[C@H](CC[C@@H]4[C@@]5(C)CC=C(c6cccc(O)c6)C(C)(C)[C@@H]5CC[C@]43C)[C@@H]12", 8.84),
]

====

test.details: Apparent permeability across apical to basolateral side in human Caco-2 cells incubated for 2 hr by high-throughput spectrometric analysis
Format: ADME, cell-based
Quick reference for Papp A→B at 2 h among some molecules
endpoint: Papp A→B at 2 h

# structure.smiles.string, endpoint, reading
measured = [
    ("C=C(C)[C@@H]1CC[C@]2(C(=O)O)CC[C@]3(C)[C@H](CC[C@@H]4[C@@]5(C)CC=C(c6cccc(O)c6)C(C)(C)[C@@H]5CC[C@]43C)[C@@H]12", "Papp A→B at 2 h", "2.32 ×10⁻⁶ cm/s"),
    ("C=C(C)[C@@H]1CC[C@]2(C(=O)O)CC[C@]3(C)[C@H](CC[C@@H]4[C@@]5(C)CC=C(c6ccc(O)cc6)C(C)(C)[C@@H]5CC[C@]43C)[C@@H]12", "Papp A→B at 2 h", "1.69 ×10⁻⁶ cm/s"),
    ("C=C(C)[C@@H]1CC[C@]2(C(=O)O)CC[C@]3(C)[C@H](CC[C@@H]4[C@@]5(C)CC=C(c6cccc(N)c6)C(C)(C)[C@@H]5CC[C@]43C)[C@@H]12", "Papp A→B at 2 h", "0.053 ×10⁻⁶ cm/s"),
]

====

Quick reference for pIC50 among some molecules
Tested on: CEM-DNR
test.details: Cytotoxicity against human CEM-DNR cells assessed as inhibition of cell growth incubated for 72 hrs by MTS assay
Type: functional, cell-based
pIC50: −log10 of the molar value.

# structure.smiles.string, inequality.sign, pIC50
rows = [
    ("C=C(C)[C@@H]1CC[C@]2(C(=O)O)CC[C@]3(C)[C@H](CC[C@@H]4[C@@]5(C)CC=C(c6cccc(C(=O)OC)c6)C(C)(C)[C@@H]5CC[C@]43C)[C@@H]12", "<", 4.30),
    ("C=C(C)[C@@H]1CC[C@]2(C(=O)O)CC[C@]3(C)[C@H](CC[C@@H]4[C@@]5(C)CC=C(c6cccc([N+](=O)[O-])c6)C(C)(C)[C@@H]5CC[C@]43C)[C@@H]12", "=", 4.37),
    ("C=C(C)[C@@H]1CC[C@]2(C(=O)O)CC[C@]3(C)[C@H](CC[C@@H]4[C@@]5(C)CC=C(c6ccc(OC)cc6)C(C)(C)[C@@H]5CC[C@]43C)[C@@H]12", "=", 4.30),
]

====

test.details: Plasma stability in human assessed as compound remaining at 2 uM measured after 30 mins by RF-MS analysis
Type: ADME, cell-free
condition.info: read-out: Stability

# structure.smiles.string, endpoint.unit, remaining at 0.5 h, 2 µM
measured = [
    ("C=C(C)[C@@H]1CC[C@]2(C(=O)O)CC[C@]3(C)[C@H](CC[C@@H]4[C@@]5(C)CC=C(c6cccc(N)c6)C(C)(C)[C@@H]5CC[C@]43C)[C@@H]12", "%", 88.7),
    ("C=C(C)[C@@H]1CC[C@]2(C(=O)O)CC[C@]3(C)[C@H](CC[C@@H]4[C@@]5(C)CC=C(c6cccc(O)c6)C(C)(C)[C@@H]5CC[C@]43C)[C@@H]12", "%", 87.4),
    ("C=C(C)[C@@H]1CC[C@]2(C(=O)O)CC[C@]3(C)[C@H](CC[C@@H]4[C@@]5(C)CC=C(c6ccc(O)cc6)C(C)(C)[C@@H]5CC[C@]43C)[C@@H]12", "%", 88.1),
]

====

Quick reference for remaining at 0.25 h, 2 µM among some molecules
test.details: Plasma stability in human assessed as compound remaining at 2 uM measured after 15 mins by RF-MS analysis
Assay type: ADME, cell-free
condition.info: read-out: Stability
endpoint: remaining at 0.25 h, 2 µM (%)

# structure.smiles.string, endpoint, reading
data = [
    ("C=C(C)[C@@H]1CC[C@]2(C(=O)O)CC[C@]3(C)[C@H](CC[C@@H]4[C@@]5(C)CC=C(c6cccc(O)c6)C(C)(C)[C@@H]5CC[C@]43C)[C@@H]12", "remaining at 0.25 h, 2 µM", 90.3),
    ("C=C(C)[C@@H]1CC[C@]2(C(=O)O)CC[C@]3(C)[C@H](CC[C@@H]4[C@@]5(C)CC=C(c6cccc(N)c6)C(C)(C)[C@@H]5CC[C@]43C)[C@@H]12", "remaining at 0.25 h, 2 µM", 97.7),
    ("C=C(C)[C@@H]1CC[C@]2(C(=O)O)CC[C@]3(C)[C@H](CC[C@@H]4[C@@]5(C)CC=C(c6ccc(O)cc6)C(C)(C)[C@@H]5CC[C@]43C)[C@@H]12", "remaining at 0.25 h, 2 µM", 93.9),
]

====

Tested on: A549
test.details: Cytotoxicity against human A549 cells assessed as inhibition of cell growth incubated for 72 hrs by MTS assay
Type: functional, cell-based
condition.info: A549, 72 h

# structure.smiles.string, endpoint.unit, inequality.sign, IC50
measured = [
    ("C=C(C)[C@@H]1CC[C@]2(C(=O)OCc3ccccc3)CC[C@]3(C)[C@H](CC[C@@H]4[C@@]5(C)CC=C(OS(=O)(=O)C(F)(F)F)C(C)(C)[C@@H]5CC[C@]43C)[C@@H]12", "µM", "=", 20),
    ("C=C(C)[C@@H]1CC[C@]2(C(=O)O)CC[C@]3(C)[C@H](CC[C@@H]4[C@@]5(C)CC=C(c6cccc(O)c6)C(C)(C)[C@@H]5CC[C@]43C)[C@@H]12", "µM", "=", 14),
    ("C=C(C)[C@@H]1CC[C@]2(C(=O)O)CC[C@]3(C)[C@H](CC[C@@H]4[C@@]5(C)CC=C(c6ccc(OC)cc6)C(C)(C)[C@@H]5CC[C@]43C)[C@@H]12", "µM", "=", 43),
    ("C=C(C)[C@@H]1CC[C@]2(C(=O)O)CC[C@]3(C)[C@H](CC[C@@H]4[C@@]5(C)CC=C(c6cccc(OC)c6)C(C)(C)[C@@H]5CC[C@]43C)[C@@H]12", "µM", "=", 45),
    ("C=C(C)[C@@H]1CC[C@]2(C(=O)O)CC[C@]3(C)[C@H](CC[C@@H]4[C@@]5(C)CC=C(c6cccc([N+](=O)[O-])c6)C(C)(C)[C@@H]5CC[C@]43C)[C@@H]12", "µM", "=", 34),
    ("C=C(C)[C@@H]1CC[C@]2(C(=O)O)CC[C@]3(C)[C@H](CC[C@@H]4[C@@]5(C)CC=C(c6cccc(C(F)(F)F)c6)C(C)(C)[C@@H]5CC[C@]43C)[C@@H]12", "µM", "=", 46),
    ("C=C(C)[C@@H]1CC[C@]2(C(=O)O)CC[C@]3(C)[C@H](CC[C@@H]4[C@@]5(C)CC=C(c6cccc(N)c6)C(C)(C)[C@@H]5CC[C@]43C)[C@@H]12", "µM", "=", 9.7),
    ("C=C(C)[C@@H]1CC[C@]2(C(=O)O)CC[C@]3(C)[C@H](CC[C@@H]4[C@@]5(C)CC=C(c6ccc([N+](=O)[O-])cc6)C(C)(C)[C@@H]5CC[C@]43C)[C@@H]12", "µM", ">", 50),
    ("C=C(C)[C@@H]1CC[C@]2(C(=O)O)CC[C@]3(C)[C@H](CC[C@@H]4[C@@]5(C)CC=C(c6ccc(N)cc6)C(C)(C)[C@@H]5CC[C@]43C)[C@@H]12", "µM", "=", 26),
    ("C=C(C)[C@@H]1CC[C@]2(C(=O)O)CC[C@]3(C)[C@H](CC[C@@H]4[C@@]5(C)CC=C(c6ccc(O)cc6)C(C)(C)[C@@H]5CC[C@]43C)[C@@H]12", "µM", "=", 6.2),
]

====

Test system: A549
test.details: Cytotoxicity against human A549 cells assessed as inhibition of cell growth incubated for 72 hrs by MTS assay
Format: functional, cell-based
condition.info: A549, 72 h

# structure.smiles.string, IC50 [µM]
rows = [
    ("C=C(C)[C@@H]1CC[C@]2(C(=O)O)CC[C@]3(C)[C@H](CC[C@@H]4[C@@]5(C)CC=C(c6ccccc6OC)C(C)(C)[C@@H]5CC[C@]43C)[C@@H]12", 42),
    ("C=C(C)[C@@H]1CC[C@]2(C(=O)O)CC[C@]3(C)[C@H](CC[C@@H]4[C@@]5(C)CC=C(c6ccccc6N)C(C)(C)[C@@H]5CC[C@]43C)[C@@H]12", 24),
    ("C=C(C)[C@@H]1CC[C@]2(C(=O)O)CC[C@]3(C)[C@H](CC[C@@H]4[C@@]5(C)CC=C(c6ccc(C(=O)OC)cc6)C(C)(C)[C@@H]5CC[C@]43C)[C@@H]12", 47),
]

These entries and their values trace back to ChEMBL document CHEMBL5247620.
